Source of measurements: ChEMBL document CHEMBL2321739

assay.method.text: Inhibition of human His-tagged Frataxin/GST-tagged mono ubiquitin interaction expressed in human Calu6 cells after 3 days by GST pull down-based Western blot analysis
Assay type: cell-based
assay.conditions: calu-6
pIC50: −log10 of the molar value.
assay.readout: pIC50

>>> df
                                   compound  observed_measurement
0  COc1ccc(C(c2cc3c(cc2O)OCO3)N2CCCCC2)cc1 (stereo not given)                  4.09
1  COc1cccc(C(c2cc3c(cc2O)OCO3)N2CCOCC2)c1OC (single isomer, unassigned; (+))                  4.35
2  COc1ccc(C(c2cc3c(cc2O)OCO3)N2CCOCC2)c(OC)c1 (stereo not given)                  4.36
3  COc1ccc(C(c2cc3c(cc2O)OCO3)N2CCCC2)cc1 (stereo not given)                  4.01
4  Oc1cc2c(cc1C(c1ccc(Cl)cc1)N1CCOCC1)OCO2 (stereo not given)                  4.17

---

Tested on: Calu-6
assay.method.text: Inhibition of human His-tagged Frataxin/GST-tagged mono ubiquitin interaction expressed in human Calu6 cells after 3 days by GST pull down-based Western blot analysis
Assay type: cell-based
assay.readout: inhibition

>>> df
                                   compound  assay_target   observed_measurement
0  COc1ccc(C(c2cc3c(cc2O)OCO3)N2CCCC2)cc1 (configuration not stated)        Calu-6  Dose-dependent effect
1  COc1ccc(C(c2cc3c(cc2O)OCO3)N2CCCCC2)cc1 (configuration not stated)        Calu-6  Dose-dependent effect
2  COc1ccc(C(c2cc3c(cc2O)OCO3)N2CCOCC2)cc1OC (configuration not stated)        Calu-6  Dose-dependent effect
3  COc1ccc(C(c2cc3c(cc2O)OCO3)N2CCOCC2)c(OC)c1 (configuration not stated)        Calu-6  Dose-dependent effect
4  COc1cccc(C(c2cc3c(cc2O)OCO3)N2CCOCC2)c1OC (single isomer, unassigned; (+))        Calu-6  Dose-dependent effect
5  Oc1ccccc1C(c1cc2c(cc1O)OCO2)N1CCOCC1 (configuration not stated)        Calu-6  Dose-dependent effect
6  COc1cccc(C(c2cc3c(cc2O)OCO3)N2CCOCC2)c1O (configuration not stated)        Calu-6  Dose-dependent effect

---

assay.method.text: Inhibition of human His-tagged Frataxin/GST-tagged mono ubiquitin interaction expressed in human Calu6 cells after 3 days by GST pull down-based Western blot analysis
Type: cell-based
assay.conditions: calu-6
pIC50: −log10 of the molar value.
Form field: pIC50 (one value per entry).
assay.readout: pIC50

>>> print(df.to_string())
                                   compound  assay_readout  observed_measurement
0  COc1ccc(C(c2cc3c(cc2O)OCO3)N2CCOCC2)cc1OC (stereo not given)          pIC50                  4.70
1  CN(C)c1ccc(C(c2cc3c(cc2O)OCO3)N2CCOCC2)cc1 (stereo not given)          pIC50                  4.09
2  COc1cc(OC)c(C(c2cc3c(cc2O)OCO3)N2CCOCC2)c(OC)c1 (stereo not given)          pIC50                  4.28
3  COc1ccc(C(c2cc3c(cc2O)OCO3)N2CCOCC2)cc1 (stereo not given)          pIC50                  4.19
4  Oc1cc2c(cc1C(c1ccc3c(c1)OCO3)N1CCOCC1)OCO2 (stereo not given)          pIC50                  4.15
